System: RXF 393 renal
Experiment: NCI-60 one-dose screen, 48 h (100 = growth as untreated, 0 = no growth, -100 = all killed)
Conditions: 10 µM unless noted
The panel holds about 83,000 compounds, 20% with a hit somewhere; the sample as a whole holds those more often.
Entry flag: 1 if growth reaches -10%; -1 if it does not.

>  <molecule>
Cn1cc(-c2nn3cc(-c4cccnc4)nc3s2)c2ccccc21

>  <label_value>
1

$$$$
>  <molecule>
CC(=O)Nc1ccc(NC(=O)Nc2cccc(-c3nc(-c4ccc(NC(=O)c5cccs5)cc4Cl)no3)c2)cc1C(F)(F)F

>  <label_value>
-1

$$$$
>  <molecule>
C=C1C(=O)O[C@@H]2C[C@@H](C)CCC(=O)[C@](C)(OC(C)=O)C[C@H](OC(=O)/C(C)=C\C)[C@@H]12

>  <label_value>
1

$$$$
>  <molecule>
C=C(C)C(=O)O[C@H]1C[C@@]2(C)OC(=CC2=O)/C(C)=C\[C@H]2OC(=O)C(=C)[C@H]12

>  <label_value>
-1

$$$$
>  <molecule>
COC[C@@]1(C)CC[C@]2(C)CC[C@]3(C)C(=CC[C@@H]4[C@@]5(C)CCCNC(C)(C)[C@@H]5CC[C@]43C)C2C1 (some centres not stated)

>  <label_value>
1

$$$$
>  <molecule>
COc1ccc(/C=N\NC(=O)c2ccc3nc(-c4ccc(Br)cc4)[nH]c3c2)cc1

>  <label_value>
-1

$$$$
>  <molecule>
NS(=O)(=O)c1ccc(Nc2nc(N/N=C/c3ccc(C(F)(F)F)cc3)nc(Nc3ccccc3)n2)cc1

>  <label_value>
-1

$$$$
>  <molecule>
C(=C(\C1=NCCN1)n1cnc2ccccc21)/c1ccc2ccccc2c1

>  <label_value>
-1

$$$$
>  <molecule>
CCOC(=O)c1c(Nc2ccccc2)nn2c(-c3ccc(Br)cc3)ccnc12

>  <label_value>
-1

$$$$
>  <molecule>
c1ccc(-c2c(-c3ccccc3)[n+](Cc3ccc4ccccc4c3)c(-c3ccccc3)n2Cc2ccc3ccccc3c2)cc1

>  <label_value>
-1

$$$$
>  <molecule>
Oc1ccc(CSc2nnc(-c3ccncc3)o2)c2cccnc12

>  <label_value>
1

$$$$
>  <molecule>
O=C(CN1C(=O)CSC1=O)Nc1ccc(C(=O)/C=C/c2cc3ccccc3nc2Cl)cc1

>  <label_value>
1

$$$$

---

Tested on: SF-539 CNS
Test: NCI-60 one-dose screen, 48 h
Settings: 10 µM unless noted
Compounds without any hit were thinned out: in the full panel of roughly 83,000, 20% have a hit. Active and inactive are the calls of the source. How the source made its calls: active means growth percent below 10; inactive means the rest.
Classes used: active, inactive

>  <compound>
CN(c1ccc(Br)cc1)S(=O)(=O)c1ccc(-c2cnc(C3CC3)o2)cc1

>  <assay_system>
SF-539 CNS

>  <label_value>
active

$$$$
>  <compound>
CC1CCc2c(sc3nc(SCC(=O)N/N=C/c4cccc(O)c4O)n(-c4ccccc4)c(=O)c23)C1 (centres undefined)

>  <assay_system>
SF-539 CNS

>  <label_value>
inactive

$$$$
>  <compound>
COc1cc(C(=O)C[n+]2ccc3ccccc3c2)cc(OC)c1OC

>  <assay_system>
SF-539 CNS

>  <label_value>
inactive

$$$$
>  <compound>
Cc1ccc(-c2cc(-c3ccc(N(C)C)cc3)n3c(n2)nc2ccccc23)cc1

>  <assay_system>
SF-539 CNS

>  <label_value>
inactive

$$$$
